The reader will find Ki measurements below, all made with PKC alpha kinase (Homo sapiens, UniProt P17252).

compound	Ki
CC(C)CC1(CN)CN(c2ccc(F)c(-c3n[nH]c4ncccc34)n2)C1 [Compound 457]	> 1250 nM
FC(F)(F)c1ccc(N2CCN[C@@H](CC3CC3)C2)nc1-c1n[nH]c2ncccc12 [Compound 165]	> 1250 nM
Fc1ccc(C2CN(c3ccc(C(F)(F)F)c(-c4n[nH]c5ncccc45)n3)CCN2)cc1 (centres unmarked) [Compound 171]	> 1250 nM
N#CC1CCN(c2ccc(F)c(-c3n[nH]c4ncccc34)n2)CC1 [Compound 275]	> 1250 nM
CC(C)C[C@H]1CN(c2cccc(-c3n[nH]c4ncccc34)n2)CCN1 [Compound 7]	< 2800 nM
CC(C)(F)C(C)(O)C1CN(c2ccc(F)c(-c3n[nH]c4ncccc34)n2)CCN1 (centres unmarked) [Compound 254]	> 1250 nM
CC(C)C(C)(O)C1CN(c2nc(-c3n[nH]c4ncccc34)ccc2F)CCN1 (centres unmarked) [Compound 374]	> 1250 nM
CC[C@@H]1CN(c2cccc(-c3n[nH]c4ncccc34)n2)CCN1 [Compound 67]	< 2800 nM

###

Examples of compounds with documented Ki follow.
- target_desc: PKC delta kinase (Homo sapiens)
- procedure_details: PKC delta kinase inhibition, coupled-enzyme (NADH absorbance) assay, Ki
- Format: biochemical
- cond: 150 μM ATP, 46 nM PKC delta kinase, 30° C.; read-out: Ki PKC delta

compound	Ki
CC1CN(c2ccc(F)c(-c3n[nH]c4ncccc34)n2)CC1CN (centres unmarked) [Compound 313]	> 1.25 µM
CCOC(=O)N1CCN(c2ccc(F)c(-c3n[nH]c4ncccc34)n2)CC1C(C)(O)C(C)C (centres unmarked) [Compound 418]	> 1.25 µM
OC1(C2CN(c3ccc(F)c(-c4n[nH]c5ncccc45)n3)CCN2)CCC1 (centres unmarked) [Compound 240]	< 0.5 µM
c1cc(-c2n[nH]c3ncccc23)nc(N2CCOCC2)c1 [Compound 27]	> 2 µM
CNC(=O)CC1CN(c2ccc(C(F)(F)F)c(-c3n[nH]c4ncccc34)n2)CCN1 (centres unmarked) [Compound 210]	> 1.25 µM
CC1(C)CC1(O)C1CN(c2ccc(F)c(-c3n[nH]c4ncccc34)n2)CCN1 (centres unmarked) [Compound 380]	> 1.25 µM
CC(C)(F)CC1CN(c2ccc(F)c(-c3n[nH]c4ncccc34)n2)CCN1 (centres unmarked) [Compound 151]	< 0.5 µM
CC(C)C(C)(O)C1CN(c2cncc(-c3n[nH]c4ncccc34)n2)CCN1 (centres unmarked) [Compound 426]	< 0.5 µM

###

- target_desc: PKC delta kinase (Homo sapiens, UniProt Q05655)
- Sequence (Q05655 whole entry): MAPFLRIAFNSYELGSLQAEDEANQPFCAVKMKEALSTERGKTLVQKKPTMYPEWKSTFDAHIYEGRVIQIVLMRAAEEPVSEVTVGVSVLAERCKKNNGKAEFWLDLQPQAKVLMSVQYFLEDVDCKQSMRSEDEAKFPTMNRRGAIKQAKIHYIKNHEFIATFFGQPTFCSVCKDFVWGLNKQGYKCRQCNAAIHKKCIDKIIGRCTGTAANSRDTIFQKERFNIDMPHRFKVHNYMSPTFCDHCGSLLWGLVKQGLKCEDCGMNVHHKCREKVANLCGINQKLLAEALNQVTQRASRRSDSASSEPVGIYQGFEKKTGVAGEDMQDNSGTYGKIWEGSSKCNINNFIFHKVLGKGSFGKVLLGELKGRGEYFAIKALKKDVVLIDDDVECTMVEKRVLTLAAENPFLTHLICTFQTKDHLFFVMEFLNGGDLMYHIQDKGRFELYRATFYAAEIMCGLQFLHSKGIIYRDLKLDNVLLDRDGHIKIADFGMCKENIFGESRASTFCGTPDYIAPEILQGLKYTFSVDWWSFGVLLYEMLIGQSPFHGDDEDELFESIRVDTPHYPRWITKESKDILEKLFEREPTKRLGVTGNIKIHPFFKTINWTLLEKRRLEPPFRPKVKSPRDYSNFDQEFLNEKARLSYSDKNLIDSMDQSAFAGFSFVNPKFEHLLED
- procedure_details: PKC delta kinase inhibition, coupled-enzyme (NADH absorbance) assay, Ki
- Type: biochemical
- cond: 150 μM ATP, 46 nM PKC delta kinase, 30° C.; read-out: Ki PKC delta
Examples of molecules with documented Ki follow.

molecule	Ki
CC(F)(F)C(C)(O)C1CN(c2ccc(F)c(-c3n[nH]c4ncccc34)n2)CCN1 (stereo not shown) [Compound 287]	< 10 nM
CC(C)(C)C(N)C1CCCN(c2ccc(F)c(-c3n[nH]c4ncccc34)n2)C1 (stereo not shown) [Compound 331]	< 2800 nM
CC(C)C[C@@H]1CN(c2ccc(C(F)(F)F)c(-c3n[nH]c4ncccc34)n2)CC[C@@H]1N [Compound 138]	< 500 nM
CC(C)(C)C[C@H]1CN(c2ccc(C(F)(F)F)c(-c3n[nH]c4ncccc34)n2)CCN1 [Compound 140]	> 1250 nM

###

- target_desc: PKC delta kinase (Homo sapiens, UniProt Q05655)
- procedure_details: PKC delta kinase inhibition, coupled-enzyme (NADH absorbance) assay, Ki
- Format: biochemical
- cond: 150 μM ATP, 46 nM PKC delta kinase, 30° C.; read-out: Ki PKC delta
property_measured: Ki

molecule	target_desc	property_measured	obs_value
Fc1ccc(N2CCN3CCCC3C2)nc1-c1n[nH]c2ncccc12 (stereo not shown)	PKC delta kinase (Homo sapiens, UniProt Q05655)	Ki	> 1250 nM
Cc1cc(N2CCNCC2)nc(-c2n[nH]c3ncccc23)c1Cl	PKC delta kinase (Homo sapiens, UniProt Q05655)	Ki	< 2800 nM
CC(C)(C)[C@H]1CN(c2ccc(Cl)c(-c3n[nH]c4ncccc34)n2)CCN1	PKC delta kinase (Homo sapiens, UniProt Q05655)	Ki	< 2800 nM
CC(F)(F)C(C)(O)C1CN(c2ccc(F)c(-c3n[nH]c4ncccc34)n2)CCN1 (stereo not shown) [Compound 246]	PKC delta kinase (Homo sapiens, UniProt Q05655)	Ki	< 500 nM
NCC1CCCN(c2cc(C(F)(F)F)cc(-c3n[nH]c4ncccc34)n2)C1 (stereo not shown)	PKC delta kinase (Homo sapiens, UniProt Q05655)	Ki	> 1250 nM
CC(C)CC1(C)CN(c2ccc(Cl)c(-c3n[nH]c4ncccc34)n2)CCN1 (stereo not shown)	PKC delta kinase (Homo sapiens, UniProt Q05655)	Ki	< 50 nM
CN(C)C(=O)C1CN(c2ccc(C(F)(F)F)c(-c3n[nH]c4ncccc34)n2)CCN1 (stereo not shown)	PKC delta kinase (Homo sapiens, UniProt Q05655)	Ki	> 1250 nM
CC(C)C(C)(O)C1CN(c2nc(-c3n[nH]c4ncccc34)ccc2F)CCN1 (stereo not shown) [Compound 328]	PKC delta kinase (Homo sapiens, UniProt Q05655)	Ki	< 10 nM
CC(C)C(C)(O)C1CN(c2ccc(Cl)c(-c3n[nH]c4ncccc34)n2)CCN1 (stereo not shown) [Compound 438]	PKC delta kinase (Homo sapiens, UniProt Q05655)	Ki	< 500 nM
CC(C)CC1(CN)CCCN(c2ccc(C(F)(F)F)c(-c3n[nH]c4ncccc34)n2)C1 (stereo not shown)	PKC delta kinase (Homo sapiens, UniProt Q05655)	Ki	< 2800 nM
CC(C)C[C@@H]1C[C@@H](N)CN(c2ccc(C(F)(F)F)c(-c3n[nH]c4ncccc34)n2)C1	PKC delta kinase (Homo sapiens, UniProt Q05655)	Ki	> 1250 nM
CCC(N)C1(C(F)(F)F)CCN(c2ccc(F)c(-c3n[nH]c4ncccc34)n2)C1 (stereo not shown) [Compound 449]	PKC delta kinase (Homo sapiens, UniProt Q05655)	Ki	> 1250 nM
COC(=O)C1(CC(C)C)CN(c2ccc(C(F)(F)F)c(-c3n[nH]c4ncccc34)n2)CCC1N (stereo not shown)	PKC delta kinase (Homo sapiens, UniProt Q05655)	Ki	< 500 nM
CC1(C)CN(c2ccc(C(F)(F)F)c(-c3n[nH]c4ncccc34)n2)CCN1	PKC delta kinase (Homo sapiens, UniProt Q05655)	Ki	< 500 nM
NC[C@@H]1CCCN1c1ccc(C(F)(F)F)c(-c2n[nH]c3ncccc23)n1	PKC delta kinase (Homo sapiens, UniProt Q05655)	Ki	> 1250 nM
Fc1ccc(N2CCCC(C3CCCN3)C2)nc1-c1n[nH]c2ncccc12 (stereo not shown)	PKC delta kinase (Homo sapiens, UniProt Q05655)	Ki	> 1250 nM
CC(C)CC(N)C1CCCN(c2ccc(F)c(-c3n[nH]c4ncccc34)n2)C1 (stereo not shown)	PKC delta kinase (Homo sapiens, UniProt Q05655)	Ki	< 2800 nM
CC(C)C(C)(O)C1CN(c2nc(-c3n[nH]c4ncccc34)c(F)cc2F)CCN1 (stereo not shown) [Compound 425]	PKC delta kinase (Homo sapiens, UniProt Q05655)	Ki	< 50 nM
CC(C)C[C@@H]1CN(c2ccc(C(F)(F)F)c(-c3n[nH]c4ncccc34)n2)CCN1	PKC delta kinase (Homo sapiens, UniProt Q05655)	Ki	> 1250 nM
Cc1ccc(C2CN(c3cccc(-c4n[nH]c5ncccc45)n3)CCN2)cc1 (stereo not shown)	PKC delta kinase (Homo sapiens, UniProt Q05655)	Ki	> 2000 nM
CCC[C@H]1CN(c2ccc(C(F)(F)F)c(-c3n[nH]c4ncccc34)n2)C[C@H]1N	PKC delta kinase (Homo sapiens, UniProt Q05655)	Ki	> 1250 nM
FC(F)(F)c1ccc(N2CCC(Nc3ccccc3)CC2)nc1-c1n[nH]c2ncccc12	PKC delta kinase (Homo sapiens, UniProt Q05655)	Ki	> 1250 nM
Fc1cccc(C2CN(c3ccc(C(F)(F)F)c(-c4n[nH]c5ncccc45)n3)CCN2)c1 (stereo not shown)	PKC delta kinase (Homo sapiens, UniProt Q05655)	Ki	< 2800 nM
CC1(C)CC1(O)C1CN(c2ccc(F)c(-c3n[nH]c4ncccc34)n2)CCN1 (stereo not shown) [Compound 383]	PKC delta kinase (Homo sapiens, UniProt Q05655)	Ki	> 1250 nM
CC(C)C(C)(O)C1CN(c2ccc(F)c(-c3n[nH]c4ncccc34)n2)CCN1C(=O)OC(C)(C)C (stereo not shown)	PKC delta kinase (Homo sapiens, UniProt Q05655)	Ki	> 1250 nM
NC(=O)C1(N)CCN(c2ccc(C(F)(F)F)c(-c3n[nH]c4ncccc34)n2)CC1	PKC delta kinase (Homo sapiens, UniProt Q05655)	Ki	> 1250 nM
CC(C)C(C)(O)C1CN(c2ccc(C(F)(F)F)c(-c3n[nH]c4ncccc34)n2)CCN1 (stereo not shown) [Compound 236]	PKC delta kinase (Homo sapiens, UniProt Q05655)	Ki	> 1250 nM
OCC1CCCN(c2ccc(C(F)(F)F)c(-c3n[nH]c4ncccc34)n2)C1 (stereo not shown)	PKC delta kinase (Homo sapiens, UniProt Q05655)	Ki	> 1250 nM
CC(C)C[C@@H]1CC(O)(c2cccc(-c3n[nH]c4ncccc34)n2)CCN1 (stereo partly shown)	PKC delta kinase (Homo sapiens, UniProt Q05655)	Ki	> 2000 nM
CC1CN(c2ccc(C(F)(F)F)c(-c3n[nH]c4ncccc34)n2)CC(C2(O)CCC2)N1 (stereo not shown)	PKC delta kinase (Homo sapiens, UniProt Q05655)	Ki	> 1250 nM
O=C1CNCCN1c1cccc(-c2n[nH]c3ncccc23)n1	PKC delta kinase (Homo sapiens, UniProt Q05655)	Ki	> 1250 nM
CC(C)(F)C(N)C1CCCN(c2ccc(F)c(-c3n[nH]c4ncccc34)n2)C1 (stereo not shown)	PKC delta kinase (Homo sapiens, UniProt Q05655)	Ki	< 500 nM
CC(C)C[C@H]1CN(c2ccc(F)c(-c3n[nH]c4ncccc34)n2)CCN1	PKC delta kinase (Homo sapiens, UniProt Q05655)	Ki	< 500 nM
CC(C)C[C@H]1CN(c2cc(CO)cc(-c3n[nH]c4ncccc34)n2)CCN1	PKC delta kinase (Homo sapiens, UniProt Q05655)	Ki	< 500 nM

These measurements were taken from patent US9193722B2.
